# runDescription: chemical genetic growth profiling, strain panel (AID 1159580);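 also: tested at 20 µM; growth read once vehicle control cultures reached saturation at 30 °C; 1 = growth at the plate median or of vehicle wells; lower values mean less growth of the strain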
# conditions: S. cerevisiae deletion strains, growth OD, locus YPR141C, strain kar3, hits give low values
Hit rate of the full screen: of about 5,500 compounds, about 2,000 (36%) were called active. Another 18% or so got no clear call; they are omitted. Some of the results follow.
Some compounds, each annotated with its measured normalized growth.
readoutLabel: normalized growth

INSERT INTO measurements (compound, reported) VALUES
  ('CC(=O)OC1CCC2(C)C(CC(OC(C)=O)C3(C)C4=CC(=O)OC(c5ccoc5)C4(C)CCC23)C1(C)C (stereo unspecified)', 0.998),
  ('CC(C)c1ccc2c(c1)CCC1C(C)(C(N)=O)CCCC21C (stereo unspecified)', 0.968),
  ('CCCc1cc(=O)[nH]c(=S)[nH]1', 0.992),
  ('Cc1cc(=O)[nH]c(=S)[nH]1', 1),
  ('CC(=O)O[C@@H]1CC[C@@]2(C)C(C[C@@H](OC(C)=O)[C@@]3(C)C4=CC(=O)O[C@@H](c5ccoc5)[C@]4(C)CCC23)C1(C)C (stereo partly specified)', 0.993),
  ('CC(=O)c1cc(CC=C(C)C)c(O)c(CC=C(C)C)c1', 0.97);
